Biological target: NLRP3 (Homo sapiens)
Construct: Seed THP-1 cells (5.56*10^5 cells/mL) containing 1.0 ug/mL LPS; endogenous in cells
Sequence (Q96P20 whole entry): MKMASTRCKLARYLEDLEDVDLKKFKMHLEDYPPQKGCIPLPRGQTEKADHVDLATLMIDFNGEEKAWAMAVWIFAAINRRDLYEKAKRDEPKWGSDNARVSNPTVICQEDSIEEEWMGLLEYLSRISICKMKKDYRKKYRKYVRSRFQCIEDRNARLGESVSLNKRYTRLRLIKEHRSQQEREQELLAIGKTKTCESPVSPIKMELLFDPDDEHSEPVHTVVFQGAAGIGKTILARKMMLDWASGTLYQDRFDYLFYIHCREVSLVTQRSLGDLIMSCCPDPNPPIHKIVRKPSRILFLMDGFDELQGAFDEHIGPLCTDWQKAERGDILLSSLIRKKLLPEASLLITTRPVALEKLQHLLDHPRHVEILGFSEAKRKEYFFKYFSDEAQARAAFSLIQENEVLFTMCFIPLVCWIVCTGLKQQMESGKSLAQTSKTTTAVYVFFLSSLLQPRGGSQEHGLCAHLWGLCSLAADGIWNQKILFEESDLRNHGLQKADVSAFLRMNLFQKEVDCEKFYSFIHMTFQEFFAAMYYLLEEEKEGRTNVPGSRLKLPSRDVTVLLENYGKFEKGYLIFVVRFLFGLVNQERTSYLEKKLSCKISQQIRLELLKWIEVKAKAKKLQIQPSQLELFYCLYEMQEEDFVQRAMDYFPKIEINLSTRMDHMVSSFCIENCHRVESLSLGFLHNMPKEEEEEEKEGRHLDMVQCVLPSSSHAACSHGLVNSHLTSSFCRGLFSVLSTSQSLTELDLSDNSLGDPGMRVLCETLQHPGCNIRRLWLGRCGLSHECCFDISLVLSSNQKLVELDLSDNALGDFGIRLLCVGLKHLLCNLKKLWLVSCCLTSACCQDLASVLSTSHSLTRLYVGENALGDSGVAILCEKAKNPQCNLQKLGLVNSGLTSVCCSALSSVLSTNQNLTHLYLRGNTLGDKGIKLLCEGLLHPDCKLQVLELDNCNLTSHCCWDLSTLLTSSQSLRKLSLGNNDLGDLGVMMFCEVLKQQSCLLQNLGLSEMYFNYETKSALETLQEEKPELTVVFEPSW
Assay: THP-1 LPS/nigericin IL1β release (pyroptosis assay), HTRF
Details: NLRP3 inhibitory activity; THP-1 cells, 1.0 ug/mL LPS, compound 3 hrs, nigericin 5 uM 1 hr, IL1β in supernatant
pIC50: −log10 of the molar value.
Property Label: pIC50

Sample records with pIC50:
compound="CO[C@@H]1COc2c(S(=O)(=O)NC(=O)Nc3c4c(cc(C)c3-c3ccc5ccnn5c3)CCC4)cnn2C1 [Example 29]" system_under_test="NLRP3 (Homo sapiens)" property_label=pIC50 result="≥ 7.00"
compound="Cc1cc2c(c(NC(=O)NS(=O)(=O)c3cc4n(n3)CCO[C@@H]4C3CC3)c1-c1ccn3ccnc3c1)CCC2 (single isomer, unassigned) [Example 15]" system_under_test="NLRP3 (Homo sapiens)" property_label=pIC50 result="≥ 7.00"
compound="Cc1cc2c(c(NC(=O)NS(=O)(=O)c3cnn4c3COCC4)c1-c1ccn3nccc3c1)CCC2 [Example 26]" system_under_test="NLRP3 (Homo sapiens)" property_label=pIC50 result="6.30 to 7.00"
compound="Cc1cc2c(c(NC(=O)NS(=O)(=O)c3cc4n(n3)CCOC43CCC3)c1-c1ccn3nccc3c1)CCC2 [Example 17]" system_under_test="NLRP3 (Homo sapiens)" property_label=pIC50 result="≥ 7.00"

Hi there! I need pIC50 for each item below, if you can.
1. CO[C@@H]1COc2c(S(=O)(=O)NC(=O)Nc3c4c(cc(C)c3-c3ccn5ccnc5c3)CCC4)cnn2C1 [Example 28]
2. O=C(Nc1c(-c2ccn3nccc3c2)ccc2c1CCC2)NS(=O)(=O)c1cnc2c(c1)N(C1CC1)CCO2 [Example 24]

1: ≥ 7.00; 2: ≥ 7.00

Entry source: patent US12338255B2
